Origin of values: patent US20240158446A1

study_system: GDP-bound KRAS wild-type protein (Homo sapiens)
protocol_text: Binding to KRAS by surface plasmon resonance (SPR), Single Cycle Kinetics
reported_conditions: SPR Single Cycle Kinetics, GDP-bound KRAS wild-type protein, 1:1 binding model; read-out: KRAS KD
Where a SMILES comes first, the peptide text is derived from it. Bridges are numbered along the chain shown (N, C = ends). [ ]: non-standard residue; d: D form. The star is where a group is joined. hPhe(3-Cl-4-CF3) = N[C@@H](CCc1ccc(C(F)(F)F)c(Cl)c1)C(=O)O; NMeGly(cPent) = CN[C@H](C(=O)O)C1CCCC1; NMeF = CN[C@@H](Cc1ccccc1)C(=O)O; NMeD = CN[C@@H](CC(=O)O)C(=O)O; NMeL = CN[C@@H](CC(C)C)C(=O)O; Morpholide = C1CN(*)CCO1; Ac5c = NC1(C(=O)O)CCCC1; Sar = CNCC(=O)O
endpoint_label: Kd (nM)
All answers are understood in nM, so give the number only.

## Input Answer with reported Kd of CC[C@H](C)[C@@H]1NC(=O)[C@H](CC(C)C)N(C)C(=O)C[C@@H](C(=O)N2CCOCC2)N(C)C(=O)[C@H](C2CCCC2)N(C)C(=O)C2(CCCC2)NC(=O)[C@@H]2CCCN2C(=O)[C@H](CCc2ccc(C(F)(F)F)c(Cl)c2)NC(=O)CN(C)C(=O)[C@H](Cc2ccccc2)N(C)C(=O)CN(C)C(=O)CN(C)C1=O [PP0039] ([NMeL]I[Sar][Sar][NMeF][Sar][hPhe(3-Cl-4-CF3)]P[Ac5c][NMeGly(cPent)][NMeD]-Morpholide; lactam N-11)
## Output 0.17

----------
study_system: GDP-bound KRAS wild-type protein (Homo sapiens, UniProt P01116)
Sequence (P01116 whole entry): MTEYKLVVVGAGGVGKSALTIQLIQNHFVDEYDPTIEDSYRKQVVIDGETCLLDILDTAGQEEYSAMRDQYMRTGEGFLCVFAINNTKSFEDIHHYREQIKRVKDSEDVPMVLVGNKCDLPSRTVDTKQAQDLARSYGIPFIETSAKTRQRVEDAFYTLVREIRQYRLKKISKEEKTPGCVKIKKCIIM
protocol_text: Binding to KRAS by surface plasmon resonance (SPR), Single Cycle Kinetics
reported_conditions: SPR, Single Cycle Kinetics, GDP-bound KRAS wild-type protein; read-out: KRAS KD
Listed next: entries and their corresponding Kd.
Please state the figure in nM; there is no need to write the unit.

Below are worked cases with known answers.
CC[C@H](C)[C@@H]1NC(=O)[C@@H]2CCC/C=C/c3ccc(cc3)C[C@@H](C(=O)N(C)CC(=O)N[C@@H](CCc3ccc(Cl)c(Cl)c3)C(=O)N3C[C@H](OC4CCC4)C[C@H]3C(=O)NC3(CC(C)(C)C3)C(=O)N(C)[C@@H](C3CCCC3)C(=O)N(C)[C@H](C(=O)N(C)CC)CC(=O)N2C)N2CC/C=C\C[C@@H](C2=O)N(C)C(=O)CN(C)C1=O [PP3058]
0.21
CCO[C@@H]1C[C@H]2C(=O)NC3(CC(C)(C)C3)C(=O)N(C)[C@@H](C3CCCC3)C(=O)N(C)[C@H](C(=O)N(CC)CC)CC(=O)N(C)[C@@H](CC)C(=O)N[C@@H]([C@@H](C)CC)C(=O)N(C)CC(=O)N(C)[C@H]3C/C=C\CCN(C3=O)[C@@H](Cc3ccc(C)cc3)C(=O)N(C)CC(=O)N[C@@H](CCc3ccc(C(F)(F)F)c(Cl)c3)C(=O)N2C1 [PP1883]
0.28
CCO[C@@H]1C[C@H]2C(=O)NC3(CC(C)(C)C3)C(=O)N(C)[C@@H](C(CC)CC)C(=O)N(C)[C@H](C(=O)N(C)C)CC(=O)N(C)[C@@H](CC(C)C)C(=O)N[C@@H]([C@@H](C)CC)C(=O)N(C)CC(=O)N(C)[C@H]3C/C=C\CCN(C3=O)[C@@H](Cc3ccc(C(F)(F)F)cc3)C(=O)N(C)CC(=O)N[C@@H](CCc3cc(F)c(C(F)(F)F)c(F)c3)C(=O)N2C1 [PP2127]
0.18

## Input Indicate the recorded Kd value for this molecule: C#CCN1CC(=O)N(C)[C@H]2C/C=C\CCN(C2=O)[C@@H](Cc2ccc(C(F)(F)F)cc2)C(=O)N(C)CC(=O)N[C@@H](CCc2ccc(C(F)(F)F)c(OC)c2)C(=O)N2C[C@H](OCC)C[C@H]2C(=O)NC2(CC(C)(C)C2)C(=O)N(C)[C@@H](C2CCCC2)C(=O)N(C)[C@H](C(=O)N(C)C)CC(=O)N(C)[C@@H](CC)C(=O)N[C@@H]([C@@H](C)CC)C1=O [PP2091]
## Output 0.18

## Input Assign Kd to the following record: CCC[C@H]1C(=O)N[C@@H]([C@@H](C)CC)C(=O)N(C)CC(=O)N(C)[C@H]2C/C=C\CCN(C2=O)[C@@H](Cc2ccc(C(F)(F)F)cc2)C(=O)N(C)CC(=O)N[C@@H](CCc2ccc(C(F)(F)F)c(Cl)c2)C(=O)N2C[C@@H](C)C[C@H]2C(=O)NC2(CC(C)(C)C2)C(=O)N(C)[C@@H](C2CCCC2)C(=O)N(C)[C@H](C(=O)N(C)C)CC(=O)N1C [PP2270]
## Output 0.24

## Input Fill in Kd for record CCO[C@@H]1C[C@H]2C(=O)NC3(CC(C)(C)C3)C(=O)N(C)[C@@H](C3CCCC3)C(=O)N(C)[C@H](C(=O)N(C)CC)CC(=O)N(C)[C@@H](COC)C(=O)N[C@@H]([C@@H](C)CC)C(=O)N(C)CC(=O)N(C)[C@H]3C/C=C\CCN(C3=O)[C@@H](Cc3ccc(C(F)(F)F)cc3)C(=O)N(C)CC(=O)N[C@@H](CCc3cc(F)c(C(F)(F)F)c(F)c3)C(=O)N2C1 [PP1671]
## Output 0.077

----------
study_system: GDP-bound KRAS wild-type protein (Homo sapiens)
protocol_text: Binding to KRAS by surface plasmon resonance (SPR), Single Cycle Kinetics
reported_conditions: SPR, Single Cycle Kinetics, GDP-bound KRAS wild-type protein; read-out: KRAS KD
endpoint_label: log10 Kd (log10 of the value in pM)
On a log10 scale: recorded Kd, unit pM.

CCO[C@@H]1C[C@H]2C(=O)NC3(CC(C)(C)C3)C(=O)N(C)[C@@H](C3CCCC3)C(=O)N(C)[C@H](C(=O)N(C)C)CC(=O)N(C)[C@@H](CC)C(=O)N[C@@H]([C@@H](C)CC)C(=O)N(C)CC(=O)N(C)[C@H]3C/C=C\CCN(C3=O)[C@@H](Cc3ccc(C)cc3)C(=O)N(C)CC(=O)N[C@@H](CCc3ccc(C(F)(F)F)c(OC)c3)C(=O)N2C1
1.88

## Input Dear colleague, please send me the reported log10 Kd for `CCC[C@H]1C(=O)N[C@@H](C2CCCC2)C(=O)N(C)CC(=O)N(C)[C@H]2C/C=C\CCN(C2=O)[C@@H](Cc2ccc(C)cc2)C(=O)N(C)CC(=O)N[C@@H](CCc2ccc(C(F)(F)F)c(OC)c2)C(=O)N2C[C@H](OCC)C[C@H]2C(=O)NC2(CC(C)(C)C2)C(=O)N(C)[C@@H](C2CCCC2)C(=O)N(C)[C@H](C(=O)N(C)C)CC(=O)N1C` when you can.
## Output 2.28

## Input Specify measured log10 Kd for `CCO[C@@H]1C[C@H]2C(=O)NC3(CCC3)C(=O)N(C)[C@@H](C3CCCC3)C(=O)N(C)[C@H](C(=O)N(C)C)CC(=O)N(C)[C@@H](CC)C(=O)N[C@@H]([C@@H](C)CC)C(=O)N(C)CC(=O)N(C)[C@H]3CCCCCN(C3=O)[C@@H](Cc3ccc(F)cc3OC)C(=O)N(C)CC(=O)N[C@@H](CCc3cc(F)c(C(F)(F)F)c(F)c3)C(=O)N2C1` .
## Output 2.63

----------
pKd listing for selected compounds.
study_system: GDP-bound KRAS wild-type protein (Homo sapiens)
protocol_text: Binding to KRAS by surface plasmon resonance (SPR), Single Cycle Kinetics
reported_conditions: SPR, Single Cycle Kinetics, GDP-bound KRAS wild-type protein; read-out: KRAS KD
pKd here: minus log base 10 of the concentration, concentration in moles per litre.

CC[C@H](C)[C@@H]1NC(=O)[C@H](COC)N(C)C(=O)C[C@@H](C(=O)N(C)CC)N(C)C(=O)[C@H](C2CCCC2)N(C)C(=O)C2(CC(C)(C)C2)NC(=O)[C@@H]2C[C@H](C)CN2C(=O)[C@H](CCc2ccc(C(F)(F)F)c(Cl)c2)NC(=O)CN(C)C(=O)[C@H](Cc2ccc(C)cc2)N2CC/C=C\C[C@@H](C2=O)N(C)C(=O)CN(C)C1=O
9.89
CC[C@H](C)[C@@H]1NC(=O)[C@H](CC(C)C)N(C)C(=O)C[C@@H](C(=O)N(C)C)N(C)C(=O)[C@H](C2CCCC2)N(C)C(=O)C2(CC(C)(C)C2)NC(=O)[C@@H]2CC(F)(F)CN2C(=O)[C@H](CCc2cc(F)c(C(F)(F)F)c(F)c2)NC(=O)CN(C)C(=O)[C@H](Cc2ccc(C(F)(F)F)cc2)N2CC/C=C\C[C@@H](C2=O)N(C)C(=O)CN(C)C1=O
10.21
C#CC[C@H]1C(=O)N[C@@H]([C@@H](C)CC)C(=O)N(C)CC(=O)N(C)[C@H]2C/C=C\CCN(C2=O)[C@@H](Cc2ccc(C(F)(F)F)cc2)C(=O)N(C)CC(=O)N[C@@H](CCc2ccc(C(F)(F)F)c(OC)c2)C(=O)N2C[C@H](OCC)C[C@H]2C(=O)NC2(CC(C)(C)C2)C(=O)N(C)[C@@H](C2CCCC2)C(=O)N(C)[C@H](C(=O)N(C)C)CC(=O)N1C
10.38
CCC[C@H]1C(=O)N[C@@H](C2CCCC2)C(=O)N(C)CC(=O)N(C)[C@H]2C/C=C\CCN(C2=O)[C@@H](Cc2ccc(C)cc2)C(=O)N(C)CC(=O)N[C@@H](CCc2cc(F)c(C(F)(F)F)c(F)c2)C(=O)N2C[C@H](OCC)C[C@H]2C(=O)NC2(CC(C)(C)C2)C(=O)N(C)[C@@H](CC(C)(C)C)C(=O)N(C)[C@H](C(=O)N(C)C)CC(=O)N1C
10.06
C#CC[C@H]1C(=O)N[C@@H]([C@@H](C)CC)C(=O)N(C)CC(=O)N(C)[C@H]2C/C=C\CCN(C2=O)[C@@H](Cc2ccc(C(F)(F)F)cc2)C(=O)N(C)CC(=O)N[C@@H](CCc2ccc(C(F)(F)F)c(Cl)c2)C(=O)N2CC3(CC3)C[C@H]2C(=O)NC2(CC(C)(C)C2)C(=O)N(C)[C@@H](C2CCCC2)C(=O)N(C)[C@H](C(=O)N(C)C)CC(=O)N1C
9.64
CCC[C@H]1C(=O)N[C@@H]([C@@H](C)CC)C(=O)N(C2CC2)CC(=O)N(C)[C@H]2C/C=C\CCN(C2=O)[C@@H](Cc2ccc(C(F)(F)F)cc2)C(=O)N(C)CC(=O)N[C@@H](CCc2ccc(C(F)(F)F)c(OC)c2)C(=O)N2C[C@H](OCC)C[C@H]2C(=O)N(C)C2(CCC2)C(=O)N(C)[C@@H](C2CCCC2)C(=O)N(C)[C@H](C(=O)N(C)C)CC(=O)N1C
9.92
C#CCN1CC(=O)N(C)[C@H]2C/C=C\CCN(C2=O)[C@@H](Cc2ccc(C(F)(F)F)cc2)C(=O)N(C)CC(=O)N[C@@H](CCc2ccc(C(F)(F)F)c(OC)c2)C(=O)N2C[C@H](OCC)C[C@H]2C(=O)NC2(CC(C)(C)C2)C(=O)N(C)[C@@H](C2CCCC2)C(=O)N(C)[C@H](C(=O)N(C)C)CC(=O)N(C)[C@@H](CCC)C(=O)N[C@@H]([C@@H](C)CC)C1=O
9.82
CCO[C@@H]1C[C@H]2C(=O)NC3(CCC3)C(=O)N(C)[C@@H](C3CCCC3)C(=O)N(C)[C@H](C(=O)N3CCOCC3)CC(=O)N(C)[C@@H](CC(C)C)C(=O)N[C@@H]([C@@H](C)CC)C(=O)N(C)CC(=O)N(C)[C@H]3CCCCCN(C3=O)[C@@H](Cc3ccc(F)c(Cl)c3)C(=O)N(C)CC(=O)N[C@@H](CCc3cc(F)c(C(F)(F)F)c(F)c3)C(=O)N2C1
9.09

## Input Answer with reported pKd of `CCCOC[C@H]1C(=O)N[C@@H]([C@@H](C)OCC)C(=O)N(C)CC(=O)N(C)[C@H]2C/C=C\CCN(C2=O)[C@@H](Cc2ccc(C)cc2)C(=O)N(C)CC(=O)N[C@@H](CCc2cc(F)c(C(F)(F)F)c(F)c2)C(=O)N2C[C@@H](C)C[C@H]2C(=O)NC2(CC(C)(C)C2)C(=O)N(C)[C@@H](C2CCCC2)C(=O)N(C)[C@H](C(=O)N(C)CC)CC(=O)N1C`
## Output 9.43

## Input Read off the recorded pKd for `CCO[C@@H]1C[C@H]2C(=O)NC3(CCC3)C(=O)N(C)[C@@H](C3CCCC3)C(=O)N(C)[C@H](C(=O)N(C)C)CC(=O)N(C)[C@@H](Cc3ccc(Cl)c(Cl)c3)C(=O)N[C@@H]([C@@H](C)CC)C(=O)N(C)CC(=O)N(C)[C@H]3CCCCCN(C3=O)[C@@H](Cc3ccc(C(F)(F)F)cc3)C(=O)N(C)CC(=O)N[C@@H](CCc3cc(F)c(C(F)(F)F)c(F)c3)C(=O)N2C1`
## Output 9.00

## Input Fill in reported pKd for this entry: `CCCO[C@@H]1C[C@H]2C(=O)NC3(CCC3)C(=O)N(C)[C@@H](C3CCCC3)C(=O)N(C)[C@H](C(=O)N3CCOCC3)CC(=O)N(C)[C@@H](COC)C(=O)N[C@@H]([C@@H](C)CC)C(=O)N(C)CC(=O)N(C)[C@H]3CCCCCN(C3=O)[C@@H](Cc3ccc(C(F)(F)F)cc3)C(=O)N(C)CC(=O)N[C@@H](CCc3cc(F)c(C(F)(F)F)c(F)c3)C(=O)N2C1`
## Output 9.28
